- assay details: First-in-human trial, dose escalation phase: full-course PK profiling of PST3.1a
- Assay type: in vivo
- run conditions: human, in vivo, po, 10 mg/kg/day, DL1 = 10 mg/kg/day, FED patients
measurement type: half-life (h)

{"columns": ["molecule", "measured value"],
 "data": [
  ["O=[P@@]1(c2ccccc2)O[C@H](COCc2ccccc2)[C@@H](OCc2ccccc2)[C@H](OCc2ccccc2)C1O (stereo partly shown)", 17.5]
]}

====

- assay details: First-in-human trial, dose escalation phase: full-course PK profiling of PST3.1a
- Type: in vivo
- run conditions: human, in vivo, po, 10 mg/kg/day, DL1 = 10 mg/kg/day, fasted patients
- Excerpt: […]
measurement type: half-life (h)

{"columns": ["compound", "measure unit", "measured value"],
 "data": [
  ["O=[P@@]1(c2ccccc2)O[C@H](COCc2ccccc2)[C@@H](OCc2ccccc2)[C@H](OCc2ccccc2)C1O (stereo partly shown)", "h", 9.2]
]}

====

- assay details: First-in-human trial, dose escalation phase: full-course PK profiling of PST3.1a
- Assay type: in vivo
- run conditions: human, in vivo, po, 10 mg/kg/day, DL1 = 10 mg/kg/day, oral, fasted patients; read-out: AUC
- Text: […]

{"columns": ["molecule", "AUC"],
 "data": [
  ["O=[P@@]1(c2ccccc2)O[C@H](COCc2ccccc2)[C@@H](OCc2ccccc2)[C@H](OCc2ccccc2)C1O (stereo partly shown)", "310 ng·h/mL"]
]}

====

- assay details: First-in-human trial, dose escalation phase: full-course PK profiling of PST3.1a
- Type: in vivo
- run conditions: human, in vivo, po, 20 mg/kg/day, DL2 = 20 mg/kg/day, oral, fasted patients; read-out: AUC

{"columns": ["compound", "measure unit", "AUC"],
 "data": [
  ["O=[P@@]1(c2ccccc2)O[C@H](COCc2ccccc2)[C@@H](OCc2ccccc2)[C@H](OCc2ccccc2)C1O (stereo partly shown)", "ng·h/mL", 340]
]}

Taken from patent US20250325570A1.
